targetOfAssay: VEGF165 (Homo sapiens, UniProt P15692-4 P15692-4:27-191)
Sequence (P15692 other isoform, or with tags, fused parts or gaps): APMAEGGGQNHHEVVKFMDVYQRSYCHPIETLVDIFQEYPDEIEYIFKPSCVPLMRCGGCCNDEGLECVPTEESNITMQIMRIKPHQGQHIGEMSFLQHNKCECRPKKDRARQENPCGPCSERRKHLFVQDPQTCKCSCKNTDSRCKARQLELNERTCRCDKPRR
testDetails: filter; 37 C
recordedConditions: tags: carrier-free, Sf 21 insect cell expressed, R & D Systems; chain copies: 2 (inferred)
Quick reference: Kd of the listed items.
measurementLabel: Kd (nM)

binder	measurementLabel	measValue
VT30.28 (ssRNA, 2'-F pyrimidines) RNA: GGGAGGACGAUGCGGAGAAUCAGUGAAUGCUUAUAAACCUCGUGUCAGACGACUCGCCCGA	Kd	0.06
VP30.6 (ssRNA, 2'-F pyrimidines) RNA: GGGAGGACGAUGCGGAACGGAAUUCUUGGAUACACACCUCGUCCUCAGACGACUCGCCCGA	Kd	0.02
VT30.4 (ssRNA, 2'-F pyrimidines) RNA: GGGAGGACGAUGCGGCUUAAGUUUUGGAAGAAUUGAAUACUGGGUCAGACGACUCGCCCGA	Kd	0.02
